Sourced from paper PMC5115179

- assay-overview: in vivo
- Type: in vivo
- study-conditions: both sexes, C57/B6, serum, ip; mouse, 300 mg/kg i.p.
measurement-name: AUC (µM·h)
Numbers only; they are read as µM·h.

Prompt: Entry O=C(O)/C=C1\CCCc2ccccc2C1O (stereo not shown) [NCS‐382] : reported AUC = ?
Completion: 436

###

- assay-overview: in vivo
- Format: in vivo
- study-conditions: both sexes, C57/B6, serum, ip; mouse, 500 mg/kg i.p.; read-out: Serum t 1/2 (converted)
measurement-name: half-life (min)
Respond numerically; units are min and should not be typed.

Prompt: Need half-life, item O=C(O)/C=C1\CCCc2ccccc2C1O (stereo not shown) [NCS‐382]
Completion: 41

###

- assay-overview: in vivo
- Assay type: in vivo
- study-conditions: both sexes, C57/B6, brain/serum, ip; mouse, 100 mg/kg i.p.; read-out: Brain to sera AUC ratio
measurement-name: Kp

Prompt: Fill blank: measured Kp of the compound O=C(O)/C=C1\CCCc2ccccc2C1O (stereo not shown) is ____.
Completion: 1.2

###

- assay-overview: in vivo
- Type: in vivo
- study-conditions: both sexes, C57/B6, serum, ip; mouse, 500 mg/kg i.p.
measurement-name: AUC (µM·h)
Answer in µM·h, number only, no unit symbol.

Prompt: Item O=C(O)/C=C1\CCCc2ccccc2C1O (stereo not shown) [NCS‐382] has what recorded AUC?
Completion: 717

###

- assay-overview: in vivo
- Format: in vivo
- study-conditions: both sexes, C57/B6, brain, ip; mouse, 500 mg/kg i.p.; read-out: Brain t 1/2 (converted)
measurement-name: half-life (min)
Give just the numeric value; min need not be written.

Prompt: Query (molecule): O=C(O)/C=C1\CCCc2ccccc2C1O (stereo not shown) ; field requested: half-life
Completion: 45.7

###

I'd be grateful if you could share measured Sera AUC0–2 h [90% CI], relative quantification (peak area ratio) for these entries.
- assay-overview: NCS‐382–diclofenac interaction study (inhibition of NCS‐382 glucuronidation)
- study-conditions: mouse; treatment NCS‐382 300 mg/kg + Diclofenac 25 mg/kg

Prompt: Look at this molecule and give its reported Sera AUC0–2 h [90% CI], relative quantification (peak area ratio). O=C(O)Cc1ccccc1Nc1c(Cl)cc(O)cc1Cl [4‐OH‐Diclofenac, 4′‐hydroxydiclofenac]
Completion: 8.28 [7.60–8.97] PAR*h

Prompt: Param item = O=C(O)/C=C1\CCCc2ccccc2C1O[C@@H]1O[C@H](C(=O)O)[C@@H](O)[C@H](O)[C@H]1O (stereo partly shown) [NCS‐Glucuronide] ; retrieve measured Sera AUC0–2 h [90% CI], relative quantification (peak area ratio).
Completion: 2.86 [2.55–3.18] PAR*h

Prompt: Name the reported Sera AUC0–2 h [90% CI], relative quantification (peak area ratio) value associated with the molecule O=C(O)/C=C1\CCCc2ccccc2C1=O [NCS dehydrogenation]
Completion: 2.72 [2.26–3.18] ^a PAR*h

Prompt: Quick one: Sera AUC0–2 h [90% CI], relative quantification (peak area ratio) for O=C(Cc1ccccc1Nc1c(Cl)cccc1Cl)O[C@@H]1O[C@H](C(=O)O)[C@@H](O)[C@H](O)[C@H]1O [Diclofenac glucuronide] ?
Completion: 4.67 [4.21–5.13] ^a PAR*h

###

- assay-overview: NCS‐382–diclofenac interaction study (inhibition of NCS‐382 glucuronidation)
- study-conditions: both, mouse, in vivo, 25 mg/kg
measurement-name: AUC(0-t) (µM·h)
Provide only the numeric value, understood in µM·h.

Prompt: // returns reported AUC(0-t) for input O=C(O)Cc1cc(O)ccc1Nc1c(Cl)cccc1Cl [5‐OH‐Diclofenac, 5‐hydroxydiclofenac]
Completion: 61.3

Prompt: I have this compound here, `O=C(O)Cc1ccccc1Nc1c(Cl)cccc1Cl` , and I need its recorded AUC(0-t).
Completion: 232

###

- assay-overview: in vivo
- Format: in vivo
- study-conditions: both sexes, C57/B6, serum, ip; mouse, 100 mg/kg i.p.
measurement-name: Cmax (µM)
Please reply with the bare figure in µM and do not write the unit itself.

Prompt: Cmax for O=C(O)/C=C1\CCCc2ccccc2C1O (stereo not shown) ?
Completion: 241

###

- assay-overview: in vivo
- Format: in vivo
- study-conditions: both sexes, C57/B6, brain/serum, ip; mouse, 500 mg/kg i.p.; read-out: Brain to sera AUC ratio
measurement-name: Kp
A bare number is all that is needed in reply.

Prompt: Value lookup for Kp; key = O=C(O)/C=C1\CCCc2ccccc2C1O (stereo not shown)
Completion: 1.8

###

- assay-overview: in vivo
- Type: in vivo
- study-conditions: both sexes, C57/B6, serum, ip; mouse, 300 mg/kg i.p.
- Procedure: In pharmacokinetic studies, mice were not randomized to groups but instead assigned to treatment and time points such that there was no gender of weight bias. […] Pharmacokinetic outcomes were obtained via standard noncompartmental methods using Kinetica (version 5.1, Thermo Fisher Scientific, Waltham, MA). […] Area under the concentration–time curve (AUC) from time zero to the last collected time point was determined using the trapezoidal method with linear up/log down interpolation. […]
measurement-name: Cmax (µM)
Report only the number, with the unit µM understood.

Prompt: Which measured Cmax value corresponds to O=C(O)/C=C1\CCCc2ccccc2C1O (stereo not shown) [NCS‐382] ?
Completion: 374

###

- assay-overview: in vivo
- Type: in vivo
- study-conditions: both sexes, C57/B6, kidney, ip; mouse, 100 mg/kg i.p.; read-out: Kidney t 1/2 (converted)
measurement-name: half-life (min)
Unit min implied. Number only.

Prompt: Reported half-life for O=C(O)/C=C1\CCCc2ccccc2C1O (stereo not shown) [NCS‐382] : what is it?
Completion: 18.5

###

- assay-overview: in vivo
- Format: in vivo
- study-conditions: both sexes, C57/B6, brain, ip; mouse, 100 mg/kg i.p.; read-out: Brain t 1/2 (converted)
measurement-name: half-life (min)
The answer is to be given in min; state only the numeric part.

Prompt: Fill in the blank: the reported half-life of O=C(O)/C=C1\CCCc2ccccc2C1O (stereo not shown) is ____.
Completion: 58

###

- assay-overview: in vivo
- Assay type: in vivo
- study-conditions: both sexes, C57/B6, serum, ip; mouse, 300 mg/kg i.p.
- Description: In pharmacokinetic studies, mice were not randomized to groups but instead assigned to treatment and time points such that there was no gender of weight bias. […] Pharmacokinetic outcomes were obtained via standard noncompartmental methods using Kinetica (version 5.1, Thermo Fisher Scientific, Waltham, MA). […] Area under the concentration–time curve (AUC) from time zero to the last collected time point was determined using the trapezoidal method with linear up/log down interpolation. […]
measurement-name: CL/F (mL/min/kg)
Express your answer in mL/min/kg, writing the number without its unit.

Prompt: Please report the recorded CL/F for O=C(O)/C=C1\CCCc2ccccc2C1O (stereo not shown) .
Completion: 52.5

###

- assay-overview: in vivo
- Type: in vivo
- study-conditions: both sexes, C57/B6, serum, ip; mouse, 100 mg/kg i.p.
measurement-name: AUC (µM·h)
Record the value in µM·h, omitting the unit from your answer.

Prompt: Reported AUC, compound O=C(O)/C=C1\CCCc2ccccc2C1O (stereo not shown) : ____
Completion: 119

###

- assay-overview: in vivo
- Assay type: in vivo
- study-conditions: both sexes, C57/B6, serum, ip; mouse, 300 mg/kg i.p.; read-out: Serum t 1/2 (converted)
measurement-name: half-life (min)
Give the number; min is assumed, so skip it.

Prompt: Which value of half-life has been reported for O=C(O)/C=C1\CCCc2ccccc2C1O (stereo not shown) in the records?
Completion: 28.1
